# method notes: Solubility in pH 7.4 sodium phosphate buffer after 2 hrs by HPLC analysis
# Assay type: physicochemical
# test settings: read-out: -log(solubility) (converted)
endpoint: solubility at 2 h (µM)
// return numeric value only (unit: µM, not printed)

Enquiry: Note down solubility at 2 h recorded for O=C(COc1cccc(C(=O)/C=C/c2ccccc2)c1)Nc1ccc2c(c1)COC2=O
Return: 1.55

Enquiry: Note down solubility at 2 h recorded for O=C(COc1ccc(C(=O)/C=C/c2c(F)cccc2F)cc1)Nc1ccc2c(c1)COC2=O
Return: 1.55

---

# target of assay: Inosine-5'-monophosphate dehydrogenase 2 (Homo sapiens, UniProt P12268)
# Sequence (P12268 2-514 limits assumed): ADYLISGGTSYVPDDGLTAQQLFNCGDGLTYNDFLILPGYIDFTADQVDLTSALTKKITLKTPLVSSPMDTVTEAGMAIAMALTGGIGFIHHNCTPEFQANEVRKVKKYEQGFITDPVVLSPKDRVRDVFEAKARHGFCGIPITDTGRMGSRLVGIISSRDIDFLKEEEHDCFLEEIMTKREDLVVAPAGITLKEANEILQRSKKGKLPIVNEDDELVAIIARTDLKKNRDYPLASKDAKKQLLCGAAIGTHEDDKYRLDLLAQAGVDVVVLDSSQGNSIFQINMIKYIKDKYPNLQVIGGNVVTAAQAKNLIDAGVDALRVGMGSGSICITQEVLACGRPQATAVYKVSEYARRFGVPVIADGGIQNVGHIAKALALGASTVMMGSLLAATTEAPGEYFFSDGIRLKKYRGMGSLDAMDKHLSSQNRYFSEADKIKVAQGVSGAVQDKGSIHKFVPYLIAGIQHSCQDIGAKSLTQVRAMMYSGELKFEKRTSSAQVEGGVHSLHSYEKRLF
# method notes: Inhibition of human IMPDH2 using IMP at 10 uM as substrate in presence of NAD+ after 30 mins relative to control
The source made the active and inactive calls. No cut-off for these calls is given here.
endpoint: inhibition

                        structure_as_smiles  result_value
0  COc1ccc(NC(=O)COc2ccc(C(=O)/C=C/c3cccs3)cc2)cc1OC         24.5%
1  O=C(COc1ccc(C(=O)/C=C/c2ccccc2)cc1)Nc1ccc2c(c1)COC2=O         79.1%
2  O=C(COc1ccc(C(=O)/C=C/c2ccccc2Cl)cc1)Nc1ccc2c(c1)COC2=O         59.5%
3  COc1cc(C(=O)/C=C/c2cc(OC)c(OC)c(OC)c2)ccc1OCC(=O)Nc1ccc2c(c1)COC2=O         19.9%
4  CCOc1ccc(/C=C/C(=O)c2ccc(OCC(=O)Nc3ccc4c(c3)COC4=O)cc2)cc1         65.5%
5  COc1ccc(NC(=O)COc2ccc(C(=O)/C=C/c3ccco3)cc2)cc1OC         21.3%
6  O=C(COc1ccc(C(=O)/C=C/c2ccc([N+](=O)[O-])cc2)cc1)Nc1ccc2c(c1)COC2=O         63.2%
7  COc1ccc(NC(=O)COc2ccc(C(=O)/C=C/c3c(F)cccc3F)cc2)cc1OC         35.9%
8  O=C(COc1ccc(C(=O)/C=C/c2cccs2)cc1)Nc1ccc2c(c1)COC2=O         76.3%
9  CCCCOc1ccc(/C=C/C(=O)c2ccc(OCC(=O)Nc3ccc4c(c3)COC4=O)cc2)cc1         57.7%

Enquiry: Note down inhibition recorded for COc1cc(/C=C/C(=O)c2ccc(OCC(=O)Nc3ccc4c(c3)COC4=O)cc2)cc(OC)c1OC
Return: 71.3%

Enquiry: Note down inhibition recorded for COc1ccc(/C=C/C(=O)c2ccc(OCC(=O)Nc3ccc4c(c3)COC4=O)cc2)cc1OC
Return: 65.5%

Enquiry: Note down inhibition recorded for COc1ccc(NC(=O)COc2ccc(C(=O)/C=C/c3ccc(Cl)cc3)cc2)cc1OC
Return: 30.1%

Enquiry: Note down inhibition recorded for COc1cccc(/C=C/C(=O)c2ccc(OCC(=O)Nc3ccc(OC)c(OC)c3)cc2)c1
Return: 28.8%

Enquiry: Note down inhibition recorded for COc1ccc(/C=C/C(=O)c2ccc(OCC(=O)NCc3ccc4c(c3)OCO4)cc2)cc1OC
Return: inactive

Enquiry: Note down inhibition recorded for COc1cccc(/C=C/C(=O)c2ccc(OCC(=O)Nc3ccc4c(c3)COC4=O)cc2)c1
Return: 91.5%

Enquiry: Note down inhibition recorded for COc1cc(/C=C/C(=O)c2ccc(OCC(=O)NCc3ccc4c(c3)OCO4)cc2)cc(OC)c1OC
Return: inactive

Enquiry: Note down inhibition recorded for O=C(COc1ccc(C(=O)/C=C/c2ccc(OCc3ccc(Cl)cc3Cl)cc2)cc1)Nc1ccc2c(c1)COC2=O
Return: 36.7%

---

For each of the molecules below, state its pIC50.
# Test system: DU-145
# method notes: Cytotoxicity against human DU145 cells assessed as reduction in cell viability after 48 hrs by MTT assay
# Type: functional, cell-based
# test settings: DU-145, 48 h
Structures can show the parent of a compound that is named as a salt.
FYI, pIC50 means -log10 of a concentration in mol per litre.

Enquiry: Note down pIC50 recorded for O=C(COc1ccc(C(=O)/C=C/c2c(F)cccc2F)cc1)Nc1ccc2c(c1)COC2=O
Return: 5.72

Enquiry: Note down pIC50 recorded for O=C(COc1ccc(/C=C/C(=O)c2ccc(F)cc2)cc1)Nc1ccc2c(c1)COC2=O
Return: 5.16

Enquiry: Note down pIC50 recorded for COc1c(C)c2c(c(O)c1C/C=C(\C)CCC(=O)O)C(=O)OC2
Return: 5.53

Enquiry: Note down pIC50 recorded for COc1cccc2c1C(=O)c1c(O)c3c(c(O)c1C2=O)C[C@@](O)(C(=O)CO)C[C@@H]3O[C@H]1C[C@H](N)[C@H](O)[C@H](C)O1 [DOXORUBICIN HYDROCHLORIDE]
Return: 6.68

Enquiry: Note down pIC50 recorded for O=C(COc1cccc(C(=O)/C=C/c2ccccc2)c1)Nc1ccc2c(c1)COC2=O
Return: 5.76

Enquiry: Note down pIC50 recorded for COc1cccc(/C=C/C(=O)c2ccc(OCC(=O)Nc3ccc4c(c3)COC4=O)cc2)c1
Return: 5.59

Enquiry: Note down pIC50 recorded for COc1ccc(/C=C/C(=O)c2ccc(OCC(=O)Nc3ccc4c(c3)COC4=O)cc2)cc1
Return: 5.67

---

For each of the compounds below, state its IC50.
# Tested on: MDA-MB-231
# method notes: Cytotoxicity against human MDA-MB-231 cells assessed as reduction in cell viability after 48 hrs by MTT assay
# Format: functional, cell-based
# test settings: MDA-MB-231, 48 h
Structures can show the parent of a compound that is named as a salt.
// return numeric value only (unit: µM, not printed)

Enquiry: Note down IC50 recorded for O=C(COc1cccc(C(=O)/C=C/c2ccccc2)c1)Nc1ccc2c(c1)COC2=O
Return: 1.1

Enquiry: Note down IC50 recorded for COc1c(C)c2c(c(O)c1C/C=C(\C)CCC(=O)O)C(=O)OC2
Return: 4.38

Enquiry: Note down IC50 recorded for O=C(COc1ccc(/C=C/C(=O)c2ccc(F)cc2)cc1)Nc1ccc2c(c1)COC2=O
Return: 5.42

Enquiry: Note down IC50 recorded for O=C(COc1ccc(C(=O)/C=C/c2c(F)cccc2F)cc1)Nc1ccc2c(c1)COC2=O
Return: 2.41

Enquiry: Note down IC50 recorded for COc1cccc(/C=C/C(=O)c2ccc(OCC(=O)Nc3ccc4c(c3)COC4=O)cc2)c1
Return: 3.42

Enquiry: Note down IC50 recorded for COc1cccc2c1C(=O)c1c(O)c3c(c(O)c1C2=O)C[C@@](O)(C(=O)CO)C[C@@H]3O[C@H]1C[C@H](N)[C@H](O)[C@H](C)O1 [DOXORUBICIN HYDROCHLORIDE]
Return: 0.54

Enquiry: Note down IC50 recorded for COc1ccc(/C=C/C(=O)c2ccc(OCC(=O)Nc3ccc4c(c3)COC4=O)cc2)cc1
Return: 3.03

---

# method notes: Cytotoxicity against mouse NIH/3T3 cells assessed as cell viability at 10 uM after 48 hrs by MTT assay relative to control
# Format: cell-based, NIH3T3
# test settings: read-out: Activity
Where a name gives a salt, the structure may show the parent alone.
Rule: measured viability at 48 h, 10 µM below 90% gets 1; anything equal to or greater than 90% gets -1.

Enquiry: Would you kindly verify if viability at 48 h, 10 µM of COc1cccc(/C=C/C(=O)c2ccc(OCC(=O)Nc3ccc4c(c3)COC4=O)cc2)c1 is strictly less than 90%?
Return: 1

Enquiry: Would you kindly verify if viability at 48 h, 10 µM of COc1cccc2c1C(=O)c1c(O)c3c(c(O)c1C2=O)C[C@@](O)(C(=O)CO)C[C@@H]3O[C@H]1C[C@H](N)[C@H](O)[C@H](C)O1 [DOXORUBICIN HYDROCHLORIDE] is strictly less than 90%?
Return: 1

Enquiry: Would you kindly verify if viability at 48 h, 10 µM of O=C(COc1cccc(C(=O)/C=C/c2ccccc2)c1)Nc1ccc2c(c1)COC2=O is strictly less than 90%?
Return: -1

Enquiry: Would you kindly verify if viability at 48 h, 10 µM of O=C(COc1ccc(C(=O)/C=C/c2c(F)cccc2F)cc1)Nc1ccc2c(c1)COC2=O is strictly less than 90%?
Return: -1

Enquiry: Would you kindly verify if viability at 48 h, 10 µM of COc1c(C)c2c(c(O)c1C/C=C(\C)CCC(=O)O)C(=O)OC2 [MYCOPHENOLIC ACID] is strictly less than 90%?
Return: 1

---

# Tested on: U-87 MG
# method notes: Cytotoxicity against human U87MG cells assessed as reduction in cell viability after 48 hrs by MTT assay
# Format: functional, cell-based, U-87MG ATCC
Where a name gives a salt, the structure may show the parent alone.
endpoint: pIC50
FYI, pIC50 means -log10 of a concentration in mol per litre.

Enquiry: Note down pIC50 recorded for COc1ccc(/C=C/C(=O)c2ccc(OCC(=O)Nc3ccc4c(c3)COC4=O)cc2)cc1
Return: 5.31

Enquiry: Note down pIC50 recorded for COc1c(C)c2c(c(O)c1C/C=C(\C)CCC(=O)O)C(=O)OC2
Return: 4.97

Enquiry: Note down pIC50 recorded for O=C(COc1cccc(C(=O)/C=C/c2ccccc2)c1)Nc1ccc2c(c1)COC2=O
Return: 5.40

Enquiry: Note down pIC50 recorded for O=C(COc1ccc(/C=C/C(=O)c2ccc(F)cc2)cc1)Nc1ccc2c(c1)COC2=O
Return: 5.22

Enquiry: Note down pIC50 recorded for O=C(COc1ccc(C(=O)/C=C/c2c(F)cccc2F)cc1)Nc1ccc2c(c1)COC2=O
Return: 5.44

Enquiry: Note down pIC50 recorded for COc1cccc(/C=C/C(=O)c2ccc(OCC(=O)Nc3ccc4c(c3)COC4=O)cc2)c1
Return: 5.24

Enquiry: Note down pIC50 recorded for COc1cccc2c1C(=O)c1c(O)c3c(c(O)c1C2=O)C[C@@](O)(C(=O)CO)C[C@@H]3O[C@H]1C[C@H](N)[C@H](O)[C@H](C)O1 [DOXORUBICIN HYDROCHLORIDE]
Return: 6.96

Numbers sourced from ChEMBL document CHEMBL4270650.
